Taken from paper PMC7496286.

study system: STAT5b-7M (Arg566Trp/Gln636Pro/Met639Asn/Phe640Leu/Met644Lys/Asn664Ser/Tyr679Phe) (Homo sapiens, UniProt P51692, F640L/M639N/M644K/N664S/Q636P/R566W/Y679F)
Construct: His
Sequence (P51692 1-787 R566W/Q636P/M639N/F640L/M644K/N664S/Y679F): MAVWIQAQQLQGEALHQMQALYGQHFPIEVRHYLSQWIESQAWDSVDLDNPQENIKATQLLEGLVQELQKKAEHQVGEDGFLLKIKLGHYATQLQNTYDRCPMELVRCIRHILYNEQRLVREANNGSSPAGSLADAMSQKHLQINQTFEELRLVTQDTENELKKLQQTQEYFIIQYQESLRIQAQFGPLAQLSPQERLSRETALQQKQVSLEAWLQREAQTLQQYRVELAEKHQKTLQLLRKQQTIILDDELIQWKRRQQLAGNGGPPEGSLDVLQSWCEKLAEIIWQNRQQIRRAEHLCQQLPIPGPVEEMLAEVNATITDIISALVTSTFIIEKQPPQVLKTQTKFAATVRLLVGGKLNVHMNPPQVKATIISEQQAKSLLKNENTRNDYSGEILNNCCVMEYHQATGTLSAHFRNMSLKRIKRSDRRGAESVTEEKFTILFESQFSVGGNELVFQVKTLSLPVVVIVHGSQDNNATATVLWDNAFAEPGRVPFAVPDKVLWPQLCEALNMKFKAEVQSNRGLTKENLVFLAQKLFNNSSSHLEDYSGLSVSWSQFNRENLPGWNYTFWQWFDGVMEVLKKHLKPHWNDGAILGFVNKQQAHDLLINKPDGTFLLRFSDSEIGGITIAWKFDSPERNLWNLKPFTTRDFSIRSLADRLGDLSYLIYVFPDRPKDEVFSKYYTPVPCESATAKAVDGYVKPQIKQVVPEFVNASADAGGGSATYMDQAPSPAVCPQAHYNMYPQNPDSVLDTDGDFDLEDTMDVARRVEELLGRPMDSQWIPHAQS
procedure text: FP-based competitive binding assay, STAT5b-7M
study conditions: STAT5b-7M; Ki calculated from IC50
reported endpoint: pKi
Quick note: pKi means taking -log10 of the concentration in moles per liter.

QUERY: I am curious: what pKi value has been reported for O=C(O)c1ccccc1OP(=O)(O)O ?
RESULT: 3.72

---

study system: STAT5b-7M (Arg566Trp/Gln636Pro/Met639Asn/Phe640Leu/Met644Lys/Asn664Ser/Tyr679Phe) (Homo sapiens, UniProt P51692, F640L/M639N/M644K/N664S/Q636P/R566W/Y679F)
Construct: His; made in house
procedure text: FP-based competitive binding assay, STAT5b-7M
study conditions: STAT5b-7M
reported endpoint: pIC50
Quick note: pIC50 means taking -log10 of the concentration in moles per liter.

QUERY: I am curious: what pIC50 value has been reported for O=C(O)c1ccccc1OP(=O)(O)O ?
RESULT: 3.42

---

study system: STAT5a Trp566Arg/Lys644Met (Homo sapiens, UniProt P42229, K644M/W566R)
Construct: His
procedure text: FP-based competitive binding assay, STAT5a Trp566Arg/Lys644Met
study conditions: STAT5a Trp566Arg/Lys644Met; Ki calculated from IC50
reported endpoint: Ki (µM)
Kindly answer with a numeric value in µM, unit omitted.

QUERY: I am curious: what Ki value has been reported for O=C(O)c1ccccc1OP(=O)(O)O ?
RESULT: 12.3

---

study system: STAT5a Trp566Arg (Homo sapiens, UniProt P42229, W566R)
Construct: His
Sequence (P42229 1-794 W566R): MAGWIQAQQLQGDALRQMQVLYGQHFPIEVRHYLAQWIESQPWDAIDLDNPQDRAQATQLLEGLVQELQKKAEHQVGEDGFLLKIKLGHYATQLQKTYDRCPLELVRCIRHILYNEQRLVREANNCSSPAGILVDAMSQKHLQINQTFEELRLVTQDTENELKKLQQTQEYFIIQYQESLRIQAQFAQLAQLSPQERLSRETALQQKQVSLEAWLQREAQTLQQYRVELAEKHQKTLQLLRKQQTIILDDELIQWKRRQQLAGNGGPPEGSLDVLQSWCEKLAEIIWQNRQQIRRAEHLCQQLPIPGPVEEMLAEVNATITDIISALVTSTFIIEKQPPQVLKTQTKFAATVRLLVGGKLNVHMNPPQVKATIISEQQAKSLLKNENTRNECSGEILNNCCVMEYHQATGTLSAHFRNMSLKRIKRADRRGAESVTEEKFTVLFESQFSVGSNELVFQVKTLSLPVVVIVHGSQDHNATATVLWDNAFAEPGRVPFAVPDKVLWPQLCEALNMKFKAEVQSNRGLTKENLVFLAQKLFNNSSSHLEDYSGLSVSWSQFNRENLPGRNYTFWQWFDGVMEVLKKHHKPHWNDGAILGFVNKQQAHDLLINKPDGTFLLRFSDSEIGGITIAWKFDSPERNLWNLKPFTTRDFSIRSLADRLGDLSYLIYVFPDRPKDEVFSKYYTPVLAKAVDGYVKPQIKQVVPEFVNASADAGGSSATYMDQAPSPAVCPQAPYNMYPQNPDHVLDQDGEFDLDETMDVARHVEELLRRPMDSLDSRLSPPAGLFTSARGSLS
procedure text: FP-based competitive binding assay, STAT5a Trp566Arg
study conditions: STAT5a Trp566Arg; Ki calculated from IC50; n=4
reported endpoint: Ki (µM)
Kindly answer with a numeric value in µM, unit omitted.

QUERY: I am curious: what Ki value has been reported for O=C(O)c1ccccc1OP(=O)(O)O ?
RESULT: 10.2

---

study system: STAT5a Trp566Arg (Homo sapiens, UniProt P42229, W566R)
Construct: His
procedure text: FP-based competitive binding assay, STAT5a Trp566Arg
study conditions: STAT5a Trp566Arg
reported endpoint: IC50 (µM)
Kindly answer with a numeric value in µM, unit omitted.

QUERY: I am curious: what IC50 value has been reported for O=C(O)c1ccccc1OP(=O)(O)O [fosfosal, O‐phosphorylated salicylic acid] ?
RESULT: 21

---

reported endpoint: Ki
Put down the number, then write its unit next to it.

QUERY: For the record O=C(O)c1ccccc1OP(=O)(O)O , what value of Ki is listed for STAT5b SH2 domain (Homo sapiens)?
RESULT: 29.3 µM

---

study system: STAT5b-6M (Gln636Pro/Met639Asn/Phe640Leu/Met644Lys/Asn664Ser/Tyr679Phe) (Homo sapiens, UniProt P51692, F640L/M639N/M644K/N664S/Q636P/Y679F)
Construct: His
Sequence (P51692 1-787 Q636P/M639N/F640L/M644K/N664S/Y679F): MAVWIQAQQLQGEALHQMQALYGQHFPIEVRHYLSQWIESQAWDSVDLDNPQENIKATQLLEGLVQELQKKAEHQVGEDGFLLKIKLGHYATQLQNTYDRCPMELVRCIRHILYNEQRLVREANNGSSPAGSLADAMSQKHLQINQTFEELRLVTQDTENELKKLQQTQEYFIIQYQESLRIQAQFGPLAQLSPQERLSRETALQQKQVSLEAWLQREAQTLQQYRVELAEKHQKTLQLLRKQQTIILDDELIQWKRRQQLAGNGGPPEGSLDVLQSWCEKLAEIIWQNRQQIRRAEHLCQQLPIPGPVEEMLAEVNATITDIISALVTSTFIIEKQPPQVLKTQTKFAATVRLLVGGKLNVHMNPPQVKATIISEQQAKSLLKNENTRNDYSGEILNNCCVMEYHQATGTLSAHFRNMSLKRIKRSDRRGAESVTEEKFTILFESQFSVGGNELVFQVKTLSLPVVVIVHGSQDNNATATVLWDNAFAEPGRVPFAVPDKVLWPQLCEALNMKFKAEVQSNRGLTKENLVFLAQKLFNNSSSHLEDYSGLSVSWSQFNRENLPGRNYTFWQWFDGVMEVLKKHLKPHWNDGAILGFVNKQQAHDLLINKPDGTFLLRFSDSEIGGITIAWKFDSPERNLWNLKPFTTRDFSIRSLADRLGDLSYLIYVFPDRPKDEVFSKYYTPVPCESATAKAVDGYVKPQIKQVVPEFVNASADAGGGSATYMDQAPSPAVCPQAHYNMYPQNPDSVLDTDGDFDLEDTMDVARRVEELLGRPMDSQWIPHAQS
procedure text: FP-based competitive binding assay, STAT5b-6M
study conditions: STAT5b-6M
reported endpoint: IC50
Put down the number, then write its unit next to it.

QUERY: I am curious: what IC50 value has been reported for O=C(O)c1ccccc1OP(=O)(O)O ?
RESULT: 21.3 µM

---

study system: STAT5a SH2 domain (Homo sapiens)
Sequence (P42229 1-794): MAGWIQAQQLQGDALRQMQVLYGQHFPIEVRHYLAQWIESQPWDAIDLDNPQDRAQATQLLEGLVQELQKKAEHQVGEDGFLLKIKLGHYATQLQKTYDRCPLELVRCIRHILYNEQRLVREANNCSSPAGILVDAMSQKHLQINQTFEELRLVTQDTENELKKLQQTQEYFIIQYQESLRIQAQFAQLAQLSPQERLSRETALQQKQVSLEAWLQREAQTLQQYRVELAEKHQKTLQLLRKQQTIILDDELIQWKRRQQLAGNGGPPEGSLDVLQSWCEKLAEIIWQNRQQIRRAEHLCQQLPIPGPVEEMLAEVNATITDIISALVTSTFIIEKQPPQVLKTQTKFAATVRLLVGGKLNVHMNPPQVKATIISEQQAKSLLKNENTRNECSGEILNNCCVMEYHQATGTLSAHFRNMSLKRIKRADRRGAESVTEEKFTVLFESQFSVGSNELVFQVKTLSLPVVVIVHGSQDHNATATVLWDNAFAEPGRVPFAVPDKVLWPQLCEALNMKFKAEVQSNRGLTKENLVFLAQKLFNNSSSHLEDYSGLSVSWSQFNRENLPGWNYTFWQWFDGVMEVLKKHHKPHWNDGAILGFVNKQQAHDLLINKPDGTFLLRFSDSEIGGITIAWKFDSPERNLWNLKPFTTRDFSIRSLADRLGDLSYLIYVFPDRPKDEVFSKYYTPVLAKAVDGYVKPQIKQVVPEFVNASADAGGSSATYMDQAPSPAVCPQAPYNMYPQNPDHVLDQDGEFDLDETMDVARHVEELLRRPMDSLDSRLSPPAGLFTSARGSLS
reported endpoint: pKi
Quick note: pKi means taking -log10 of the concentration in moles per liter.

QUERY: I am curious: what pKi value has been reported for O=C(O)c1ccccc1OP(=O)(O)O ?
RESULT: 3.83
